All figures here come from PubChem BioAssay (NCI).

# Test system: TK-10 renal
# Assay procedure: NCI tumour cell line growth inhibition, 48 h
The compounds listed here are annotated with their TGI.
Please reply with the bare figure in µM and do not write the unit itself.

>>> readout_number("O=[N+]([O-])c1ccc2[nH]nc(OCc3ccccc3Cl)c2c1")
61.3
>>> readout_number("S=C(N/N=C(/c1ccccc1)c1ccccn1)N(Cc1ccccn1)Cc1ccccn1")
1.58
>>> readout_number("O=C(Nc1ccc(Oc2ccc(Nc3nc4ccccc4s3)cc2)cc1)Nc1ccc(Cl)c(C(F)(F)F)c1")
5.35
>>> readout_number("COc1cc(-c2ccc3cc(OC)c(OC)c(OC)c3c2)cc(OC)c1OC")
84.3
>>> readout_number("COCCOc1ccc(-c2nc3ccc(-c4nc5ccc(N6CCN(C)CC6)cc5[nH]4)cc3[nH]2)cc1")
40.2

Quick check: TGI of Cc1cc(I)cc(CN(CCCN(C)C)C(C)C)c1O ?
33.1

====

The molecules listed here are annotated with their TGI.
# Tested on: M14 melanoma
# Assay procedure: NCI tumour cell line growth inhibition, 48 h

>>> result("CCN(C(=O)N1CCN(c2cc3c(cc2F)c(=O)c(C(=O)O)cn3C2CC2)CC1)c1nc(-c2ccc(Cl)cc2)cs1")
"> 100 µM"

Quick check: TGI of O=C(Cc1ccc(O)c(O)c1)NCc1c[nH]c2ccccc12 ?
> 100 µM

Quick check: TGI of CCn1c(-c2nonc2N)nc2c(C#CC(C)(C)O)nc(OC[C@@H](N)c3ccccc3)cc21 ?
8.11 µM

====

# System: K-562 leukemia
# Assay procedure: NCI tumour cell line growth inhibition, 48 h
The molecules listed here are annotated with their TGI.

// solved cases for TGI follow
>>> result("NS(=O)(=O)c1nnc(NC(=O)Nc2ccc(Cl)c(Cl)c2)s1")
"> 100 µM"
>>> result("COc1cc(S(=O)(=O)Nc2nc(-c3ccc(N4C(=O)C(CC(=O)O)SC4c4cccs4)cc3)cs2)ccc1Cl (stereo unspecified)")
"> 100 µM"
>>> result("CN(C)CCNS(=O)(=O)c1ccc(N)cc1")
"> 100 µM"

Quick check: TGI of CCOC(=O)C1=C(C(=O)OCC)C2c3ccccc3C=CN2C(C(=O)OCC)=C(SC)S1 (stereo unspecified) ?
> 100 µM

Quick check: TGI of O=C(c1ccccn1)C1(N2CCCCC2)CCCCC1 ?
> 100 µM

Quick check: TGI of COc1cccc(C(=O)NC(c2ccc(C)cc2)c2cc(Cl)c3cccnc3c2O)c1 (stereo unspecified) ?
54.8 µM

====

# Tested on: NCI-H460 lung
# Assay procedure: NCI tumour cell line growth inhibition, 48 h
Observation type: TGI

// solved cases for TGI follow
>>> result("CN(C)c1cc(NN=C(c2ccc(O)cc2)c2ccc(O)cc2)c([N+](=O)[O-])cc1[N+](=O)[O-]")
"15.9 µM"
>>> result("CC(=O)NNc1nc(C)c(C(=O)/C=C/c2ccc(NC(C)=O)cc2)s1")
"> 100 µM"
>>> result("CCC(=O)NC(Nc1cc(C)on1)(C(F)(F)F)C(F)(F)F")
"> 100 µM"
>>> result("CCOC(=O)C1=C(C)N(c2ccc(F)cc2F)[C@]2(C#N)C(O)=C(Cl)C(Cl)=C(O)[C@]12C#N")
"> 100 µM"
>>> result("CC(=O)c1c2c(c3ccccc3c1O)O[C@@H]1OCC[C@H]21")
"> 100 µM"

Test system NCI-H460 lung; read-out TGI; what value for Nn1c(-c2ccccc2)n[nH]c1=O ?
> 100 µM

Test system NCI-H460 lung; read-out TGI; what value for CN1CC[C@@H](NC(=O)Nc2ccc(C#N)cc2)C[C@@H]1c1nc2ccccc2[nH]1 ?
> 100 µM

Test system NCI-H460 lung; read-out TGI; what value for CC1=Nc2ccccc2OC(C)=C1N=Nc1ccc2nc(C)[nH]c2c1 ?
> 100 µM

Test system NCI-H460 lung; read-out TGI; what value for [N-]=[N+]=NC(c1ccccc1)(c1ccccc1)c1ccccc1 ?
33 µM

Test system NCI-H460 lung; read-out TGI; what value for NS(=O)(=O)c1nnc(NC(=O)Nc2ccc(Cl)c(Cl)c2)s1 ?
55.3 µM

Test system NCI-H460 lung; read-out TGI; what value for CCCOc1cc2ccccc2cc1C(=O)Nc1nc(N)c2c(ccc3nccc32)[nH]1 ?
1.31 µM

Test system NCI-H460 lung; read-out TGI; what value for CC1(C)OC1COc1c2occc2cc2ccc(=O)oc12 (stereo unspecified) ?
> 100 µM

Test system NCI-H460 lung; read-out TGI; what value for CCOC(=O)C1=C(C(=O)OCC)C2c3ccccc3C=CN2C(C(=O)OCC)=C(SC)S1 (stereo unspecified) ?
> 100 µM

Test system NCI-H460 lung; read-out TGI; what value for C[C@]12CCC3c4ccc(O)cc4CCC3C1CC[C@@]2(O)CNC(=O)/C=C/c1ccc(O)c(O)c1 (stereo partly specified) ?
31.6 µM

Test system NCI-H460 lung; read-out TGI; what value for CN(C)CCNS(=O)(=O)c1ccc(N)cc1 ?
> 100 µM
